# Measured On: T1, Pex13, P80667
# T1 sequence (P80667 295-386, looked up): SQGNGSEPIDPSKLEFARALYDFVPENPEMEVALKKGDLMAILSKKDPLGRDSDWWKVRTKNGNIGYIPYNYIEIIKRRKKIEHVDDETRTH
# Procedure Details: SPOT array
# Test Context: median of control spots 1341
Property Label: SPOT intensity
Answer with the value's number alone.

Binder | SPOT intensity
RPVPRRPSQPLNTLS | 348
DKKTKPTPPPKPSHL | 4

// query SPOT intensity value for entry FPPKRKPLLRPQRSD
16

// query SPOT intensity value for entry SKSRLLIELPEGFFT
14

// query SPOT intensity value for entry FTLPPPPPPPGLDEL
13

// query SPOT intensity value for entry QRKSLRRPTLSKPAV
3
